Values compiled from patent US9554990B2.

System: Mouse intestinal CCK-producing cell line STC-1
Assay: Confirmation test of CCK secretion-stimulating activity (CCK in supernatant, enzyme immunoassay)
Assay type: cell-based
Conditions: Table 2B; 100 μM test material, 60 minutes, STC-1; (sample minus vehicle) divided by value of 70 mM KCl control

# compound, CCK secretion-promoting activity Score
records = [
    ("C/C=C\\CCCCCCC [compound 29, cis-2-decene]", "−0.208"),
    ("CCCCC/C=C\\CCCO [compound 17, cis-4-decen-1-ol]", "−0.171"),
    ("CCCCC/C=C/CO [compound 16, trans-2-octen-1-ol]", 0.321),
    ("CCCCCCCCCC(=O)O", "−0.207"),
    ("CCCCC/C=C/C(=O)O [compound 23, trans-2-octenoic acid]", 0.146),
    ("CCCCCCC/C=C/C=O [compound 8, trans-2-decenal]", 0.046),
    ("CCCCCCCCCCCC=O", "−0.093"),
    ("CCCCCCCCCCC=O", 0.189),
    ("[Cl-].[K+]", 1),
    ("CCCCCCCCCCCCO", "−0.304"),
    ("CCCCCCCCCCO", 0.070),
]
